target under test: WEE1 (Homo sapiens)
Construct: purchased Thermo Fisher PR7373A
measurement description: Selectivity versus WEE1 assay (ADP-Glo enzymatic assay)
Assay type: biochemical
condition context: fold difference in selectivity for PKMYT1 over WEE1; banded
reported property: PKMYT1 vs. WEE1 selectivity

// known answers, use as guide
# molecule, test value
records = [
    ("Cn1ccc(Nc2ncc(C(=O)Nc3c(Cl)ccc(O)c3F)s2)n1", "W (10-<100 fold)"),
    ("Cc1ccc(O)c(C)c1NC(=O)c1cnc(Nc2nn(C)cc2Cl)s1", "X (100-<1000 fold)"),
    ("Cc1ccc(O)c(Br)c1NC(=O)c1cnc(Nc2ccn(C)n2)s1", "X (100-<1000 fold)"),
    ("Cc1ccc(O)c(C)c1NC(=O)c1cnc(Nc2cccc(-c3cccnc3)n2)s1", "W (10-<100 fold)"),
    ("Cc1ccc(O)c(C)c1NC(=O)c1cnc(Nc2cccc(N3CCN(C)CC3)n2)s1", "W (10-<100 fold)"),
    ("Cc1ccc(O)c(C)c1NC(=O)c1cnc(Nc2nc(Cl)ccc2C(F)(F)F)s1", "X (100-<1000 fold)"),
]

Query PKMYT1 vs. WEE1 selectivity for COc1cccc(Nc2ncc(C(=O)Nc3c(C)ccc(O)c3C)s2)n1
X (100-<1000 fold)

Query PKMYT1 vs. WEE1 selectivity for Cc1cn(C(CO)C(=O)N(C)C2CC2)nc1Nc1ncc(C(=O)Nc2c(C)ccc(O)c2C)s1 (stereo not drawn)
X (100-<1000 fold)

Query PKMYT1 vs. WEE1 selectivity for COCCN(CCOC)C(=O)Cn1cc(C)c(Nc2ncc(C(=O)Nc3c(C)ccc(O)c3C)s2)n1
X (100-<1000 fold)

---

pIC50 for assorted compounds
target under test: Human PKMYT1 (Homo sapiens, UniProt Q99640)
Construct: Human PKMYT1 75-362 was cloned as a TEV cleavable 6xHis fusion; 6xHis (TEV cleavable) (cleaved yes); made in house; host or cells: bacterial cells
Sequence (Q99640 75-362): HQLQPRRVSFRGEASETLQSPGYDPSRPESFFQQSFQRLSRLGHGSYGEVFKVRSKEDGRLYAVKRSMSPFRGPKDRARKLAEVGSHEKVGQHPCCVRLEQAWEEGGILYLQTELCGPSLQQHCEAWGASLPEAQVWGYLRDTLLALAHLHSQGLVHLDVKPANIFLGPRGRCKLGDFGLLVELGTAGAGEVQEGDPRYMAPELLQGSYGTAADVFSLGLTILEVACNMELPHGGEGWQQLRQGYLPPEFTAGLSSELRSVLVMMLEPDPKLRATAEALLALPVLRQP
measurement description: PKMYT1 biochemical ADP-Glo enzymatic assay
condition context: ADP-Glo; 15 nM PKMYT1 kinase domain, 500 µM ATP, 60 minutes at 26° C.; banded
pIC50: −log10 of the molar value. Counter-ions that a name gives are not always drawn.

# compound, target under test, pIC50
measured = [
    ("Cc1ccc(O)c(C)c1NC(=O)c1cnc(Nc2ccn(CC(=O)NC3CCCCC3)n2)s1", "Human PKMYT1 (Homo sapiens, UniProt Q99640)", "> 7.30"),
    ("Cc1ccc(O)c(C)c1NC(=O)c1cnc(Nc2cccc(-c3ccc(C(F)(F)F)cc3)n2)s1", "Human PKMYT1 (Homo sapiens, UniProt Q99640)", "6.00 to 7.30"),
    ("Cc1ccc(O)c(C)c1NC(=O)c1cnc(Nc2ccn([C@@H]3CCN(Cc4ccccc4)C3)n2)s1", "Human PKMYT1 (Homo sapiens, UniProt Q99640)", "6.00 to 7.30"),
    ("Cc1ccc(O)c(C)c1NC(=O)c1cnc(NCc2nccs2)s1", "Human PKMYT1 (Homo sapiens, UniProt Q99640)", "6.00 to 7.30"),
    ("Cc1ccc(O)c(C)c1NC(=O)c1cnc(Nc2ccn(CCN)n2)s1", "Human PKMYT1 (Homo sapiens, UniProt Q99640)", "6.00 to 7.30"),
    ("Cc1cn(-c2cnn(C(C)C)c2)nc1Nc1ncc(C(=O)Nc2c(C)ccc(O)c2C)s1", "Human PKMYT1 (Homo sapiens, UniProt Q99640)", "> 7.30"),
    ("COc1ccc2cc(Nc3ncc(C(=O)Nc4c(C)ccc(O)c4C)s3)nn2c1", "Human PKMYT1 (Homo sapiens, UniProt Q99640)", "6.00 to 7.30"),
    ("Cc1ccc(O)c(C)c1NC(=O)c1cnc(NCC2CCNCC2)s1 [BAA-079, hydrochloride]", "Human PKMYT1 (Homo sapiens, UniProt Q99640)", "4.96 to 6.00"),
]

Query pIC50 for Cc1cnc(Nc2ncc(C(=O)Nc3c(C)ccc(O)c3C)s2)s1
> 7.30

Query pIC50 for Cc1ccc(O)c(C)c1NC(=O)c1cnc(Nc2ccn(CC(=O)N3CCNCC3)n2)s1
> 7.30

Query pIC50 for CNC(=O)Cn1ccc(Nc2ncc(C(=O)Nc3c(C)ccc(O)c3C)s2)n1
> 7.30

Query pIC50 for Cc1ccc(O)c(C)c1NC(=O)c1cnc(Nc2ccn(CC(=O)N3CC4(CNC4)C3)n2)s1 [BAA-200, 2,2,2-trifluoroacetate]
> 7.30

Query pIC50 for Cc1ccc(O)c(C)c1NC(=O)c1cnc(NCc2cccc(O)c2)s1
> 7.30

Query pIC50 for Cc1cn(-c2cc(Cl)cnc2F)nc1Nc1ncc(C(=O)Nc2c(C)ccc(O)c2C)s1
6.00 to 7.30

Query pIC50 for Cc1ccc(O)c(C)c1NC(=O)c1cnc(NCc2cn[nH]c2)s1
> 7.30

---

target under test: WEE1 (Homo sapiens, UniProt P30291)
Construct: purchased Thermo Fisher PR7373A
Sequence (P30291 whole entry): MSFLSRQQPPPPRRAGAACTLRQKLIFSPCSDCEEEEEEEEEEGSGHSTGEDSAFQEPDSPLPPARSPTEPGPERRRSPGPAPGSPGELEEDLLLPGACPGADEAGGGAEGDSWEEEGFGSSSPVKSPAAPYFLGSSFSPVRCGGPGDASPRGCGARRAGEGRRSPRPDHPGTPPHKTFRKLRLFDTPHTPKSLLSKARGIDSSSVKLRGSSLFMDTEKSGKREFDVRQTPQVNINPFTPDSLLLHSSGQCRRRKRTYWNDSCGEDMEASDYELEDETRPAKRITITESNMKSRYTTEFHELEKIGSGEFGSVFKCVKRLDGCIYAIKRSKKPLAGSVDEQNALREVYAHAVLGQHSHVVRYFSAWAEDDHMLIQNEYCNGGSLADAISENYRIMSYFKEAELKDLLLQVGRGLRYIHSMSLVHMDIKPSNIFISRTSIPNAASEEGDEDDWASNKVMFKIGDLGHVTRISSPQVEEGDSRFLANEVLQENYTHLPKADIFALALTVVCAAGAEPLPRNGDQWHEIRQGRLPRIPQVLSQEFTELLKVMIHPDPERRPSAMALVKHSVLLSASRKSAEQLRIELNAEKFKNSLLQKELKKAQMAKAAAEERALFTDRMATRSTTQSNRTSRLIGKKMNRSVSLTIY
measurement description: Selectivity versus WEE1 assay (ADP-Glo enzymatic assay)
Format: biochemical
condition context: ADP-Glo; 15 nM WEE1, 60 minutes at 26° C.; banded
Where a name gives a salt, the structure may show the parent alone.
reported property: IC50

# compound, target under test, test value
rows = [
    ("Cc1ccc(O)c(C)c1NC(=O)c1cnc(Nc2ccn(CC(C)C)n2)s1", "WEE1 (Homo sapiens, UniProt P30291)", "1 to 11 µM"),
    ("Cc1ccc(O)c(C)c1NC(=O)c1cnc(Nc2ccn([C@H]3CCCNC3)n2)s1 [BAA-054, (hydrochloride)]", "WEE1 (Homo sapiens, UniProt P30291)", "> 11 µM"),
    ("Cc1ccc(O)c(C)c1NC(=O)c1cnc(Nc2cc(C(=O)N(C)C)n(C)n2)s1", "WEE1 (Homo sapiens, UniProt P30291)", "1 to 11 µM"),
    ("Cc1ccc(O)c(C)c1NC(=O)c1cnc(Nc2ccn(CC(=O)N3CCN(CC4CC4)CC3)n2)s1", "WEE1 (Homo sapiens, UniProt P30291)", "> 11 µM"),
]

Now for another entry.
Give IC50 for Cc1ccc(O)c(C)c1NC(=O)c1cnc(NCCNC(=O)OC(C)(C)C)s1 tested on WEE1 (Homo sapiens, UniProt P30291).
> 11 µM

---

target under test: Human PKMYT1 (Homo sapiens)
Construct: Human PKMYT1 75-362 was cloned as a TEV cleavable 6xHis fusion; 6xHis (TEV cleavable) (cleaved yes); made in house; host or cells: bacterial cells
measurement description: PKMYT1 biochemical ADP-Glo enzymatic assay
condition context: ADP-Glo; 15 nM PKMYT1 kinase domain, 500 µM ATP, 60 minutes at 26° C.; banded
pIC50: −log10 of the molar value.
reported property: pIC50

# input smiles, pIC50
data = [
    ("Cc1ccc(O)c(C)c1NC(=O)c1cnc(NCc2cccnc2)s1", "6.00 to 7.30"),
    ("COCCNc1ncc(C(=O)Nc2c(C)ccc(O)c2C)s1", "4.96 to 6.00"),
    ("Cc1cn(S(=O)(=O)C(C)C)nc1Nc1ncc(C(=O)Nc2c(C)ccc(O)c2C)s1", "> 7.30"),
    ("Cc1nnc(Nc2ncc(C(=O)Nc3c(C)ccc(O)c3C)s2)o1", "4.96 to 6.00"),
]

Now for another entry.
Query pIC50 for Cc1ccc(O)c(C)c1NC(=O)c1cnc(Nc2ncn(C)n2)s1
> 7.30

---

target under test: WEE1 (Homo sapiens, UniProt P30291)
Construct: purchased Thermo Fisher PR7373A
measurement description: Selectivity versus WEE1 assay (ADP-Glo enzymatic assay)
Format: biochemical
condition context: fold difference in selectivity for PKMYT1 over WEE1; banded; ">N" = at least in this band but could be higher
Counter-ions that a name gives are not always drawn.
reported property: PKMYT1 vs. WEE1 selectivity

# compound, PKMYT1 vs. WEE1 selectivity
records = [
    ("Cc1cnccc1-n1cc(C)c(Nc2ncc(C(=O)Nc3c(C)ccc(O)c3C)s2)n1", "X (100-<1000 fold)"),
    ("Cc1ccc(O)c(C)c1NC(=O)c1cnc(N)s1", "X (100-<1000 fold)"),
    ("Cc1ccc(O)c(C)c1NC(=O)c1cnc(Nc2ccn(CC(=O)N3CCN(C4CCCC4)CC3)n2)s1", "Y (1000-5000 fold)"),
    ("Cc1ccc(O)c(C)c1NC(=O)c1cnc(Nc2ccn(CC(=O)N3C[C@@H]4C[C@H]3CN4C)n2)s1 [BAA-172, (hydrochloride)]", "X (100-<1000 fold)"),
    ("Cc1ccc(NC(=O)C(C)C)nc1Nc1ncc(C(=O)Nc2c(C)ccc(O)c2C)s1.Cl", "X (100-<1000 fold)"),
    ("Cc1ccc(NC(=O)c2ccc(F)cc2)nc1Nc1ncc(C(=O)Nc2c(C)ccc(O)c2C)s1", "Y (1000-5000 fold)"),
]

Query PKMYT1 vs. WEE1 selectivity for Cc1ccc(O)c(C)c1NC(=O)c1cnc(Nc2ccn(CC(=O)NC3CCC3)n2)s1
Y (1000-5000 fold)

Query PKMYT1 vs. WEE1 selectivity for Cc1ccc(O)c(C)c1NC(=O)c1cnc(Nc2nc(C)c(Br)c(C)n2)s1
Y (1000-5000 fold)

Query PKMYT1 vs. WEE1 selectivity for Cc1ccc(O)c(C)c1NC(=O)c1cnc(Nc2ccn(CC(=O)N3C[C@@H]4C[C@H]3CN4C(=O)OC(C)(C)C)n2)s1
Y (1000-5000 fold)

Query PKMYT1 vs. WEE1 selectivity for Cc1ccc(O)c(C)c1NC(=O)c1cnc(Nc2ccn(CC(=O)NCC(C)(C)O)n2)s1
Y (1000-5000 fold)
